# Target: Cyclin-dependent kinase 2/cyclin E (Homo sapiens, UniProt P24941)
# Test Name: Inhibitory concentration against cyclin dependent kinase-2 (CDK2)/Cyclin E
Note to self: IC50 under 2 µM means T, ties and anything higher get F.

Compound: CN(Cc1ccc(C(=O)O)cc1)c1[nH]c(Cl)nc2ncnc1-2
Target: Cyclin-dependent kinase 2/cyclin E (Homo sapiens, UniProt P24941)
Group Label: F
//
Compound: CC(C)(C)OC(=O)Cn1cnc2c(NCc3ccc(-c4ccccc4)cc3)nc(N(CCO)CCO)nc21
Target: Cyclin-dependent kinase 2/cyclin E (Homo sapiens, UniProt P24941)
Group Label: F
//
Compound: Cn1cnc2c(Nc3nc4ccccc4s3)nc(Cl)nc21
Target: Cyclin-dependent kinase 2/cyclin E (Homo sapiens, UniProt P24941)
Group Label: F
//
Compound: CC(C)n1cnc2c(NCc3ccc(C4=CC(=S)CC=C4)cc3)nc(N(CCO)CCO)nc21
Target: Cyclin-dependent kinase 2/cyclin E (Homo sapiens, UniProt P24941)
Group Label: F
//
Compound: CCCn1cnc2c(NCCCCCCO)nc(Cl)nc21
Target: Cyclin-dependent kinase 2/cyclin E (Homo sapiens, UniProt P24941)
Group Label: F

Inquiry: State whether 2 µM exceeds IC50 recorded for Cn1cnc2c(NC3CCCC3)nc(Cl)nc21 .
Reply text: F

Inquiry: Now this one: Cn1cnc2c(NC(C)(C)CO)nc(Cl)nc21
Reply text: F
